Test: Plasma pharmacokinetics after single ascending doses (SAD), phase 1
Format: in vivo, human (healthy adult participants)
Details: human, single 1-h IV infusion 50 mg, plasma, n = 6, median (range)
Method: Participants were then discharged on day 3. Plasma and urine PK parameters were summarized for each cohort using descriptive statistics. Analyses using linear models were performed to assess dose proportionality (both single-dose cohorts 1–7 and multiple-dose cohorts 8–10). Dose-linearity of Cmax and AUC across the dose range was assessed by fitting the power model with ln-transformed parameter as response variables and ln-transformed dose (continuous variable) as a fixed effect. […]
Where a SMILES comes first, the peptide text is derived from it. Bridges are numbered along the chain shown (N, C = ends). [ ]: non-standard residue; d: D form. The star is where a group is joined. X1 = O=C(c1ccc(Cl)cc1Cl)*; Dab = NCC[C@H](N)C(=O)O; Abu = CC[C@H](N)C(=O)O; Dap = NC[C@H](N)C(=O)O
assayEndpoint: Tmax (h)
One number for each entry, in h.

Request: Fill in the blank: the reported Tmax of CC[C@@H]1NC(=O)[C@@H](CC(C)C)NC(=O)[C@H](CCN)NC(=O)[C@@H](NC(=O)[C@H](CN)NC(=O)[C@@H](NC(=O)[C@H](CCN)NC(=O)c2ccc(Cl)cc2Cl)[C@@H](C)O)CCNC(=O)[C@H]([C@@H](C)O)NC(=O)[C@H](CCN)NC(=O)[C@H](CCN)NC1=O [BRII-693] (X1-[Dab]T[Dap][Dab][Dab][dL][Abu][Dab][Dab]T; lactam 4-C; N-terminus assumed) is ____.
Response: 1.07
